biological target: pseudo-kinase domain (JH2, amino-acids 536-812) of human V617F mutant JAK2 (Homo sapiens (Human), UniProt O60674, F794H/V617F/W659A/W777A); assay: JAK2 LanthaScreen JH2-V617F Binding Assay; conditions: JAK2 JH2-V617F 0.26 nM, 50 nM fluorescent tracer, 1 hour at 25° C.; read-out: JH2 BIND V617F IC50
Sequence (O60674 536-812 V617F/W659A/W777A/F794H): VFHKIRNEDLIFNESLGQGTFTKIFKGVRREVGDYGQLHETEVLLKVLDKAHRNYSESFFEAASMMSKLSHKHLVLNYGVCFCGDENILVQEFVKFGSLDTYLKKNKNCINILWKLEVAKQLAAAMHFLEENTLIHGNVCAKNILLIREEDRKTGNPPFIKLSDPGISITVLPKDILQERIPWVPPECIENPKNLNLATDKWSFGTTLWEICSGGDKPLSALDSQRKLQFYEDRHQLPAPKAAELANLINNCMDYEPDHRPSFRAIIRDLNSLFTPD
Counter-ions that a name gives are not always drawn.
Value Type: IC50

compound="CC(C(N)=O)n1cc(-c2ccc(-c3c(-c4ccc(CN5CCC(S(C)(=O)=O)CC5)cc4)[nH]c4ncc5c(c34)CN(C(C)(C)C)C(=O)N5C)cc2)cn1 (racemic) [Example 19, Trifluoroacetic Acid Salt]" value_type=IC50 recorded_measurement="≤ 100 nM"
compound=CN1C(=O)N(C(C)(C)C)Cc2c1cnc1[nH]c(-c3ccc(CN4CCC(S(C)(=O)=O)CC4)cc3)c(-c3ccc(C(=O)NCC4(C#N)CC4)cc3)c21 value_type=IC50 recorded_measurement="≤ 100 nM"

Qu. # return recorded IC50 for input CN1C(=O)N(c2ccc(C(=O)O)cc2)Cc2c1cnc1[nH]c(-c3ccc(CN4CCC(S(C)(=O)=O)CC4)cc3)c(-c3ccc(C4(N)CC4)cc3)c21
Ans. ≤ 100 nM

Qu. Answer with the recorded IC50 of CS(=O)(=O)C1CCN(Cc2ccc(-c3cc4c5c(cnc4[nH]3)NC(=O)N(C3CCN(S(N)(=O)=O)CC3)C5)cc2)CC1 only.
Ans. 1000 to 2500 nM

Qu. Give the value of IC50 reported for the following: CN1C(=O)N(c2ccc(C(=O)O)cc2)Cc2c1cnc1[nH]c(-c3ccc(CN4CCC(S(C)(=O)=O)CC4)cc3)c(C3CC3)c21 [Example 23, trifluoroacetic acid salt]
Ans. ≤ 100 nM
